Task for the reader: assign each of the following substances its reported Activity of Kv1.3 with peptide (percentage of the reference compound).
Molecular target: Kv1.3 (Homo sapiens, UniProt P22001)
Construct: host or cells: HEK293 or CHO
Sequence (P22001 whole entry): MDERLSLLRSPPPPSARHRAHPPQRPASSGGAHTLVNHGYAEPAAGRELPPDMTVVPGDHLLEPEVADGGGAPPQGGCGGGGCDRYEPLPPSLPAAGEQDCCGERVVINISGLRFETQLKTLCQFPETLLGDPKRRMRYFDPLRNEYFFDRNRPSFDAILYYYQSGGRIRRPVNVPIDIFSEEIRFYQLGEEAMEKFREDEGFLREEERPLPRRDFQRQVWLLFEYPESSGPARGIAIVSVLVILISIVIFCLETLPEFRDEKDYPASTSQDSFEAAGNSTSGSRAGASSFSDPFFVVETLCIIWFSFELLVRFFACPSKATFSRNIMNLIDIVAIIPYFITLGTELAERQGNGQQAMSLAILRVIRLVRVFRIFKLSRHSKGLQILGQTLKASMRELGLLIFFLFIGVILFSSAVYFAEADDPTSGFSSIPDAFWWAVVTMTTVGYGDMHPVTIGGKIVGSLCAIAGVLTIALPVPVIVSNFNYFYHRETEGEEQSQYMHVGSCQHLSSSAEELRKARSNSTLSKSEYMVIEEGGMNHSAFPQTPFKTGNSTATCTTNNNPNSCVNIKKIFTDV
Experiment: cell-based
Assay type: cell-based
Settings: peptide at 20 μM; 100% = no change, <100% = inhibition
Description: This example describes a method for assaying ion channel activity in cells. Peptides were screened in duplicate at final concentrations of 20 μM and 200 nM, as determined by amino acid analysis, and diluted into HEPES buffered physiological saline (HBPS). HEK293 or CHO cells from the American Type Culture Collection (ATCC) were transfected with the appropriate ion channel before use. […]
Give the value, in units of %, as a plain number.

Fill in the blank: the reported Activity of Kv1.3 with peptide (percentage of the reference compound) of 13 (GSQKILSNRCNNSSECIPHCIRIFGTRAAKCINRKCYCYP) [compound 13] is ____. 64

Fill in the blank: the reported Activity of Kv1.3 with peptide (percentage of the reference compound) of 26 (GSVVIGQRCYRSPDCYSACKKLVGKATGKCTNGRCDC) [compound 26] is ____. 77

Fill in the blank: the reported Activity of Kv1.3 with peptide (percentage of the reference compound) of 24 (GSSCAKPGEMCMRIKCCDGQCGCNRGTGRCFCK) [compound 24] is ____. 73

Fill in the blank: the reported Activity of Kv1.3 with peptide (percentage of the reference compound) of 25 (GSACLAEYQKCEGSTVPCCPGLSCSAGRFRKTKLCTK) [compound 25] is ____. 87

Fill in the blank: the reported Activity of Kv1.3 with peptide (percentage of the reference compound) of 18 (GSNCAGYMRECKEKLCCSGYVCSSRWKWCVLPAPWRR) [compound 18] is ____. 7

Fill in the blank: the reported Activity of Kv1.3 with peptide (percentage of the reference compound) of 4 (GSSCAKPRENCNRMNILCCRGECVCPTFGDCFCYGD) [compound 4] is ____. 87

Fill in the blank: the reported Activity of Kv1.3 with peptide (percentage of the reference compound) of 38 (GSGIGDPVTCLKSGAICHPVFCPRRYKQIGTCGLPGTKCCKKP) [compound 38] is ____. 31

Fill in the blank: the reported Activity of Kv1.3 with peptide (percentage of the reference compound) of 22 (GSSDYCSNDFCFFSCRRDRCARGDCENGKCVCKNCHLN) [compound 22] is ____. 51

Fill in the blank: the reported Activity of Kv1.3 with peptide (percentage of the reference compound) of 12 (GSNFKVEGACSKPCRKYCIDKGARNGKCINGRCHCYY) [compound 12] is ____. 23

###

Target: Nav1.7 (Homo sapiens)
Construct: host or cells: HEK293 or CHO
Sequence (Q15858 whole entry): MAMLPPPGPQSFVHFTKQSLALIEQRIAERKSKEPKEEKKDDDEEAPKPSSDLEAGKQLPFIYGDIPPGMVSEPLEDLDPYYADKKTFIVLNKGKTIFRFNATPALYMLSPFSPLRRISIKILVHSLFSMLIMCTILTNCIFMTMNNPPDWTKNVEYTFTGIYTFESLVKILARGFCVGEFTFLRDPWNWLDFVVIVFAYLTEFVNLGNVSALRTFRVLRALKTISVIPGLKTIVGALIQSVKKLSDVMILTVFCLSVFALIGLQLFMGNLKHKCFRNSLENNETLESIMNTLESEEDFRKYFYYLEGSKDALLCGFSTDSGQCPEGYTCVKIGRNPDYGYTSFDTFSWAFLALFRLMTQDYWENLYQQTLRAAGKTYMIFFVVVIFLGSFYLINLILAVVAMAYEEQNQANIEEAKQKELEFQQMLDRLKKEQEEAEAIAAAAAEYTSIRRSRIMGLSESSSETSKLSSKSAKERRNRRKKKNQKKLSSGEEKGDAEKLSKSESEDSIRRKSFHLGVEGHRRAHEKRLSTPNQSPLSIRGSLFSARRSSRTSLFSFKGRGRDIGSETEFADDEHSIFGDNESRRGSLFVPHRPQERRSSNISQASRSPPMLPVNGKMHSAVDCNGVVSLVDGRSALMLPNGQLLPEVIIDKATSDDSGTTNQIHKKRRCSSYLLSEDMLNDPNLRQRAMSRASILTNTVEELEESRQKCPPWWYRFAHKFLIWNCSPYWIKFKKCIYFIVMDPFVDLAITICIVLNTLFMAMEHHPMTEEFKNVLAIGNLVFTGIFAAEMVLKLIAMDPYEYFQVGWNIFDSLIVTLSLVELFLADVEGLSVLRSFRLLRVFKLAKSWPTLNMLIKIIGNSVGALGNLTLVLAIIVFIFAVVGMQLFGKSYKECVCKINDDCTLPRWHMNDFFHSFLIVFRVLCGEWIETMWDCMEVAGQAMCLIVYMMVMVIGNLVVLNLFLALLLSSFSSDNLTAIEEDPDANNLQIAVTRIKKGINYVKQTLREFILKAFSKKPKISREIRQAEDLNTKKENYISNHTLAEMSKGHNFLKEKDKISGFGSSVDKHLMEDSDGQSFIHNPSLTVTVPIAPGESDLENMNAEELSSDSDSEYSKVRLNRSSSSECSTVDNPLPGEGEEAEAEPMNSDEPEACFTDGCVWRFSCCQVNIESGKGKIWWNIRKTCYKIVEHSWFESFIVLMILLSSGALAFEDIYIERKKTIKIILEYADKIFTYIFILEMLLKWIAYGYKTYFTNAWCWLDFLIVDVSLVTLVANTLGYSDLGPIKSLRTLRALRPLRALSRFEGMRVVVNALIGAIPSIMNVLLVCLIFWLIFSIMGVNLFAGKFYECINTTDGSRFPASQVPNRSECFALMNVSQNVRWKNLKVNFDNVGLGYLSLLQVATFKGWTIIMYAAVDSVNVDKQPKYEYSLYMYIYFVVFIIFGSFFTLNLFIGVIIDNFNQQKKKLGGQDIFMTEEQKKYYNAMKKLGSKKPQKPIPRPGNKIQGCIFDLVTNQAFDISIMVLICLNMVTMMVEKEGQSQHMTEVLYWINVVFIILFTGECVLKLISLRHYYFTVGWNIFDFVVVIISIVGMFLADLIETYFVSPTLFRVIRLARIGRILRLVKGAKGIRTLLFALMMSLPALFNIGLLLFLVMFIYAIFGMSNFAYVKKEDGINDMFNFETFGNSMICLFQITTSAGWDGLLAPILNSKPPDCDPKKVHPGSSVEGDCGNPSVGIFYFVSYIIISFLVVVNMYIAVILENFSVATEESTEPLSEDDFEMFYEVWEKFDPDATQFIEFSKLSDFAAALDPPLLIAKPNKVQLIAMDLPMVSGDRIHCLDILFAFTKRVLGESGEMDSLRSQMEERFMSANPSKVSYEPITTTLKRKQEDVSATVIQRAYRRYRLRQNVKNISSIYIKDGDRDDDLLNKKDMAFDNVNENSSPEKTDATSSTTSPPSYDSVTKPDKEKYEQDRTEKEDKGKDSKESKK
Test: cell-based
Assay type: cell-based
Settings: peptide at 20 μM; second of two Nav1.7 columns (probably TP2); 100% = no change
QUANTITY_MEASURED: Activity of Nav1.7 with peptide (percentage of the reference compound) (%)
Give the value, in units of %, as a plain number.

Fill in the blank: the reported Activity of Nav1.7 with peptide (percentage of the reference compound) of 3 (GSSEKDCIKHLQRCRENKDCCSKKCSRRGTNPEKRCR) [compound 3] is ____. 68

Fill in the blank: the reported Activity of Nav1.7 with peptide (percentage of the reference compound) of 32 (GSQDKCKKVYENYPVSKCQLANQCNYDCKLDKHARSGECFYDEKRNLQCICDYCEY) [compound 32] is ____. 61

Fill in the blank: the reported Activity of Nav1.7 with peptide (percentage of the reference compound) of 18 (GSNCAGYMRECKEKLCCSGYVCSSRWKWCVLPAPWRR) [compound 18] is ____. 55

Fill in the blank: the reported Activity of Nav1.7 with peptide (percentage of the reference compound) of 4 (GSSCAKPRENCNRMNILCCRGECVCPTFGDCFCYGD) [compound 4] is ____. 104

Fill in the blank: the reported Activity of Nav1.7 with peptide (percentage of the reference compound) of 13 (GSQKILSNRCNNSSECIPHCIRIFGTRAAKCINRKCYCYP) [compound 13] is ____. 62

###

Target: Nav1.5 (Homo sapiens, UniProt Q14524)
Sequence (Q14524 whole entry): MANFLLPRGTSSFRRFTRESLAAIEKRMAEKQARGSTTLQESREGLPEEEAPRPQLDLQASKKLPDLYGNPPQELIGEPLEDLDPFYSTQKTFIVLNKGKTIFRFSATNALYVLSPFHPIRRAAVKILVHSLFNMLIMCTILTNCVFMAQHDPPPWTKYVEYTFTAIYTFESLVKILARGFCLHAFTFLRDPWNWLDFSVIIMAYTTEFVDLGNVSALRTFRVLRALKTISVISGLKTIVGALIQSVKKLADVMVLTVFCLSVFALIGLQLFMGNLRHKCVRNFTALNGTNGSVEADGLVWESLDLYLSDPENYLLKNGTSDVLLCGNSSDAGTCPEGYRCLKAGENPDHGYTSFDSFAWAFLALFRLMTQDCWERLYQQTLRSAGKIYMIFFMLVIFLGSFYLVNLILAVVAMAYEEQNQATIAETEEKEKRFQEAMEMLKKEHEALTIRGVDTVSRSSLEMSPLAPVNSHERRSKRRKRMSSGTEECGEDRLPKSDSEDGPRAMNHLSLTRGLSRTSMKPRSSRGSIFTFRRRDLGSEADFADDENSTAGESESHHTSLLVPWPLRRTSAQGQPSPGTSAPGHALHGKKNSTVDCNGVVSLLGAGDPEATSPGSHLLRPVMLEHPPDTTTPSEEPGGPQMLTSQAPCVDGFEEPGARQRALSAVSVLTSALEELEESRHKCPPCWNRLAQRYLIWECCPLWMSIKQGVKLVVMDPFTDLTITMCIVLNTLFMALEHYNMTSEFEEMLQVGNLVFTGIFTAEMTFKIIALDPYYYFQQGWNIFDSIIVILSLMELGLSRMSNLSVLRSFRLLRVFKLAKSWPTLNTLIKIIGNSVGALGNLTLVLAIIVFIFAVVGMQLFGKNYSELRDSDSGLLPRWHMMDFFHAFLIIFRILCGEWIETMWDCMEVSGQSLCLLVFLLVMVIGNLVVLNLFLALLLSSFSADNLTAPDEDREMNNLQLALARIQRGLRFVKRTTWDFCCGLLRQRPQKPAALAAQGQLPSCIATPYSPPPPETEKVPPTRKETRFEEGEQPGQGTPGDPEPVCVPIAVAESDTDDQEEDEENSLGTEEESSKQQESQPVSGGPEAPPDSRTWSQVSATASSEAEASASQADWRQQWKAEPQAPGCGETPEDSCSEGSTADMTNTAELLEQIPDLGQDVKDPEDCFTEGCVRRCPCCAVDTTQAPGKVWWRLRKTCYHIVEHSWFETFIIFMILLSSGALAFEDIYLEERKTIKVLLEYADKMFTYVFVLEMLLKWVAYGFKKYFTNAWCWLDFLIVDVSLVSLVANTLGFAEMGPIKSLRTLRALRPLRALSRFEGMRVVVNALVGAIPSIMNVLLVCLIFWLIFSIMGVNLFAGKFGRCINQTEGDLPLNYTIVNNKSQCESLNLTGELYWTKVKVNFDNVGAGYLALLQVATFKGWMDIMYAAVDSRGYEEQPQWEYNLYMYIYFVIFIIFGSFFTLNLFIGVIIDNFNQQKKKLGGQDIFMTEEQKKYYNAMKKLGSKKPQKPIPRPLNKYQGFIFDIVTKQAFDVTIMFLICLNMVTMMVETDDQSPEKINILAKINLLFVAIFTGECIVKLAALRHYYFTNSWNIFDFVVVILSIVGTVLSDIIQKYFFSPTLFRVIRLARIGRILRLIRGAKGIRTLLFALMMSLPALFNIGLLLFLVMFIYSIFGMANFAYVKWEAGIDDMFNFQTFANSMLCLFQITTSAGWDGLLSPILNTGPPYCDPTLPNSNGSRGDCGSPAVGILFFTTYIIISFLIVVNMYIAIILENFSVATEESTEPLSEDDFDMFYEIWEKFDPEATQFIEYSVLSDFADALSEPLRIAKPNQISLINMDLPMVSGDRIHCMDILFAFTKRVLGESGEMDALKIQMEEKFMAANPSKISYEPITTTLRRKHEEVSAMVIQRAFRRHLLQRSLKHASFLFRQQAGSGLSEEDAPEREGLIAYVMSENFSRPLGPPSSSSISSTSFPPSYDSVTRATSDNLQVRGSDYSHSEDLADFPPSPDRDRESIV
Assay: in vitro
Details: peptide at 0.2 μM; first of two Nav1.5 columns (probably TP1); 100% = no change
Task for the reader: assign each of the following substances its reported Activity of Nav1.5 with peptide, expressed as a percentage of the reference compound.
Give the value, in units of %, as a plain number.

Fill in the blank: the reported Activity of Nav1.5 with peptide, expressed as a percentage of the reference compound of 2 (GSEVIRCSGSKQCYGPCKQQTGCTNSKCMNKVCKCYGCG) [compound 2] is ____. 95

Fill in the blank: the reported Activity of Nav1.5 with peptide, expressed as a percentage of the reference compound of 23 (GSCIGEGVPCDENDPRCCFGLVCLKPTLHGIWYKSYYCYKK) [compound 23] is ____. 85

Fill in the blank: the reported Activity of Nav1.5 with peptide, expressed as a percentage of the reference compound of 24 (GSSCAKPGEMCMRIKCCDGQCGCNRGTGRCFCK) [compound 24] is ____. 94

Fill in the blank: the reported Activity of Nav1.5 with peptide, expressed as a percentage of the reference compound of 11 (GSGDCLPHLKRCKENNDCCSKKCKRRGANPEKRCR) [compound 11] is ____. 107

Fill in the blank: the reported Activity of Nav1.5 with peptide, expressed as a percentage of the reference compound of 20 (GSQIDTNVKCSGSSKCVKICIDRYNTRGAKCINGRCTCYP) [compound 20] is ____. 103

Fill in the blank: the reported Activity of Nav1.5 with peptide, expressed as a percentage of the reference compound of 14 (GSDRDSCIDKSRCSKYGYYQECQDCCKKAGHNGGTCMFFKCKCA) [compound 14] is ____. 85

Fill in the blank: the reported Activity of Nav1.5 with peptide, expressed as a percentage of the reference compound of 18 (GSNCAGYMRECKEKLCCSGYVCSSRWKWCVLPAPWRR) [compound 18] is ____. 104

Fill in the blank: the reported Activity of Nav1.5 with peptide, expressed as a percentage of the reference compound of 4 (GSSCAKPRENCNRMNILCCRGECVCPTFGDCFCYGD) [compound 4] is ____. 117

Fill in the blank: the reported Activity of Nav1.5 with peptide, expressed as a percentage of the reference compound of 39 (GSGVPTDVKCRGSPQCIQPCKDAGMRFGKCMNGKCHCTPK) [compound 39] is ____. 108

Fill in the blank: the reported Activity of Nav1.5 with peptide, expressed as a percentage of the reference compound of 25 (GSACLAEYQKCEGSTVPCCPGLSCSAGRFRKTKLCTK) [compound 25] is ____. 76

Fill in the blank: the reported Activity of Nav1.5 with peptide, expressed as a percentage of the reference compound of 9 (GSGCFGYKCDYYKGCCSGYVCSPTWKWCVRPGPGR) [compound 9] is ____. 104

Fill in the blank: the reported Activity of Nav1.5 with peptide, expressed as a percentage of the reference compound of 17 (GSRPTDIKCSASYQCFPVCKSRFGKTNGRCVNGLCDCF) [compound 17] is ____. 96

Fill in the blank: the reported Activity of Nav1.5 with peptide, expressed as a percentage of the reference compound of 30 (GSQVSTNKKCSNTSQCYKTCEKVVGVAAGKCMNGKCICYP) [compound 30] is ____. 105

Fill in the blank: the reported Activity of Nav1.5 with peptide, expressed as a percentage of the reference compound of 10 (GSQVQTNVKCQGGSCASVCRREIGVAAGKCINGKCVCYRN) [compound 10] is ____. 93

Fill in the blank: the reported Activity of Nav1.5 with peptide, expressed as a percentage of the reference compound of 36 (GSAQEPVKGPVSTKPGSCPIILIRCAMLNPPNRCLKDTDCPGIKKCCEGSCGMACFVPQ) [compound 36] is ____. 110

Fill in the blank: the reported Activity of Nav1.5 with peptide, expressed as a percentage of the reference compound of 22 (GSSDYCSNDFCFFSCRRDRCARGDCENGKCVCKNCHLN) [compound 22] is ____. 90

Fill in the blank: the reported Activity of Nav1.5 with peptide, expressed as a percentage of the reference compound of 32 (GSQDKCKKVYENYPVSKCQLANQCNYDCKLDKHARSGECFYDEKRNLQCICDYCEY) [compound 32] is ____. 108

Fill in the blank: the reported Activity of Nav1.5 with peptide, expressed as a percentage of the reference compound of 19 (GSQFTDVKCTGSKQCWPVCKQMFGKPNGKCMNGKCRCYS) [compound 19] is ____. 112

Fill in the blank: the reported Activity of Nav1.5 with peptide, expressed as a percentage of the reference compound of 3 (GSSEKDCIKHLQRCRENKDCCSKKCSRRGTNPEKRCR) [compound 3] is ____. 113

Fill in the blank: the reported Activity of Nav1.5 with peptide, expressed as a percentage of the reference compound of 29 (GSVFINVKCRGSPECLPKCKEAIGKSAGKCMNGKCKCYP) [compound 29] is ____. 110

Fill in the blank: the reported Activity of Nav1.5 with peptide, expressed as a percentage of the reference compound of 26 (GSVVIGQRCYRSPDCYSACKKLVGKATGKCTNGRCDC) [compound 26] is ____. 92

Fill in the blank: the reported Activity of Nav1.5 with peptide, expressed as a percentage of the reference compound of 27 (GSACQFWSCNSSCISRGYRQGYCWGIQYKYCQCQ) [compound 27] is ____. 94
